target: P-glycoprotein (P-gp, rat Mdr1a) (Rattus norvegicus); assay: P-gp transport, experimental BA/AB ratio, rat LLC-Mdr1a; format: in vitro ADME; conditions: LLC-PK1; rat LLC-Mdrla; 1 μM substrate concentration
Sequence (Q6PSM0 1-1272): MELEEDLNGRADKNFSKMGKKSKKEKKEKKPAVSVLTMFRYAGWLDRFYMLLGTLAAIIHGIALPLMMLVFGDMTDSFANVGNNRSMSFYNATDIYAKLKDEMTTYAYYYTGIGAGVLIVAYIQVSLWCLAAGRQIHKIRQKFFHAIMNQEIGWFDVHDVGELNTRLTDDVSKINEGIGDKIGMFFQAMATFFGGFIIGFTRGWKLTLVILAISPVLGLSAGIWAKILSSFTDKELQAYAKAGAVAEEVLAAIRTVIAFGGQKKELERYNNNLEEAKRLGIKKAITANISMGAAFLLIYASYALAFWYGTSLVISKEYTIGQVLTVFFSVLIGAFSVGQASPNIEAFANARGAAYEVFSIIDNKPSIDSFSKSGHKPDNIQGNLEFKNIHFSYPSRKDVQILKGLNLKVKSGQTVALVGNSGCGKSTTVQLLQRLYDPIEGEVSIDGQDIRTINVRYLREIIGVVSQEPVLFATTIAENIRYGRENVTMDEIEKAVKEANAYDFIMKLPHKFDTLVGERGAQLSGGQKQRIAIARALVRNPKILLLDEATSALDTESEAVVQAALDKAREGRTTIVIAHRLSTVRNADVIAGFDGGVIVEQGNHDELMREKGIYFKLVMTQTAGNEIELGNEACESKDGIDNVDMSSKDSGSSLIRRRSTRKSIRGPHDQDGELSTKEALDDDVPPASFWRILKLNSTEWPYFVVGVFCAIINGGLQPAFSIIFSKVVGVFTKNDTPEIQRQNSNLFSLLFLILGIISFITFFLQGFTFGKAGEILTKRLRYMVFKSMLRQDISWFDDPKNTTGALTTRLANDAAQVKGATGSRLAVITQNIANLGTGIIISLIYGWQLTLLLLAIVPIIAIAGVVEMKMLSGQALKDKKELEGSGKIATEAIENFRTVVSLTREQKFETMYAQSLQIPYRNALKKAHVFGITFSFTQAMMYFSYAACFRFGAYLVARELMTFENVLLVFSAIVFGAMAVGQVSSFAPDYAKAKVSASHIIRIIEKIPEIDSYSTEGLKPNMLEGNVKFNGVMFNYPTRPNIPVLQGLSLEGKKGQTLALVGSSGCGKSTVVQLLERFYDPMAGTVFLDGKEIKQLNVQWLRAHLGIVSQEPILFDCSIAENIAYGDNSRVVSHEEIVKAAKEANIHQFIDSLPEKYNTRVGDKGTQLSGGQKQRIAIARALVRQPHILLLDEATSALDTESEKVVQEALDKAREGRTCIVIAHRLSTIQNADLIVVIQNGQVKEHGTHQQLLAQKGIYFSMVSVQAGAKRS
With a cut-off of 5, any efflux ratio at 1 μM strictly below it is called criterion met; any efflux ratio at 1 μM meeting it or above is called criterion not met.

| substance-smiles | assay-system | label-value |
| --- | --- | --- |
| CN(C)c1nc(C(=O)N[C@@H](c2ccc(OC(F)(F)F)c(F)c2)C(C)(C)C)cc(=O)[nH]1 | P-glycoprotein (P-gp, rat Mdr1a) (Rattus norvegicus) | criterion not met |
| C[C@@H](NC(=O)c1cc(=O)[nH]c(N2CCCC2)n1)c1ccc(SC(F)(F)F)cc1 | P-glycoprotein (P-gp, rat Mdr1a) (Rattus norvegicus) | criterion not met |
| CC(C)[C@@H](NC(=O)c1cc(=O)[nH]c(N)n1)c1ccc(OC(F)(F)F)c(F)c1 | P-glycoprotein (P-gp, rat Mdr1a) (Rattus norvegicus) | criterion not met |
| CN(C)c1nc(C(=O)N[C@@H](c2ccc(C(F)(F)F)c(F)c2)C(C)(C)C)cc(=O)[nH]1 | P-glycoprotein (P-gp, rat Mdr1a) (Rattus norvegicus) | criterion not met |
| C[C@@H](NC(=O)c1cc(=O)[nH]c(N(C)C)n1)c1ccc(OC(F)(F)F)cc1 | P-glycoprotein (P-gp, rat Mdr1a) (Rattus norvegicus) | criterion met |
| CN(C)c1nc(C(=O)N[C@@H](c2ccc(C(C)(F)F)cc2)C(C)(C)C)cc(=O)[nH]1 | P-glycoprotein (P-gp, rat Mdr1a) (Rattus norvegicus) | criterion met |
| CN(C)c1nc(C(=O)N[C@@H](c2ccc(C(F)F)c(F)c2)C(C)(C)C)cc(=O)[nH]1 | P-glycoprotein (P-gp, rat Mdr1a) (Rattus norvegicus) | criterion not met |
| CN(C)c1nc(C(=O)N[C@@H](c2ccc(OC(F)F)c(F)c2)C(C)(C)C)cc(=O)[nH]1 | P-glycoprotein (P-gp, rat Mdr1a) (Rattus norvegicus) | criterion met |
| CN(C)c1nc(C(=O)N[C@@H](c2ccc(C(F)(F)F)cc2)C2(C)CC2)cc(=O)[nH]1 | P-glycoprotein (P-gp, rat Mdr1a) (Rattus norvegicus) | criterion met |
| CN(C)c1nc(C(=O)N[C@@H](c2ccc(C3CC3)cc2)C2(C)CC2)cc(=O)[nH]1 | P-glycoprotein (P-gp, rat Mdr1a) (Rattus norvegicus) | criterion met |
| C[C@@H](NC(=O)c1cc(=O)[nH]c(N2CCCC2)n1)c1ccc(C(F)(F)F)cc1 | P-glycoprotein (P-gp, rat Mdr1a) (Rattus norvegicus) | criterion met |
| C[C@@H](NC(=O)c1cc(=O)[nH]c(N2CC(F)C2)n1)c1ccc(C(F)(F)F)cc1 | P-glycoprotein (P-gp, rat Mdr1a) (Rattus norvegicus) | criterion not met |
| CC(C)[C@@H](NC(=O)c1cc(=O)[nH]c(N2CCC2)n1)c1ccc(SC(F)(F)F)cc1 | P-glycoprotein (P-gp, rat Mdr1a) (Rattus norvegicus) | criterion not met |
| CC[C@@H](NC(=O)c1cc(=O)[nH]c(N(C)C)n1)c1ccc(S(F)(F)(F)(F)F)cc1 | P-glycoprotein (P-gp, rat Mdr1a) (Rattus norvegicus) | criterion met |
| CN(C)c1nc(C(=O)N[C@@H](c2ccc(C(C)(C)C)cc2)C2(C)CC2)cc(=O)[nH]1 | P-glycoprotein (P-gp, rat Mdr1a) (Rattus norvegicus) | criterion met |
| CC(C)[C@@H](NC(=O)c1cc(=O)[nH]c(N(C)C)n1)c1ccc(C(F)(F)F)c(F)c1 | P-glycoprotein (P-gp, rat Mdr1a) (Rattus norvegicus) | criterion met |
